List of half-life values.
- ASSAY: Plasma half life was determined in monkey by iv/po dose at 10 mg/kg
- Assay type: ADME, organism-based
- Parameters: dose 10 mg/kg
- SETTINGS: cercopithecidae
OUTCOME MEASURE: half-life (h)

ITEM SMILES | NUMBER
COc1cc2c(N3CCN(C(=S)NCc4ccc5c(c4)OCO5)CC3)ncnc2cc1OCCN1CCCCC1 | 9.25
COc1cc2c(N3CCN(/C(S)=N\c4ccc(-c5ccccn5)cc4)CC3)ncnc2cc1OCCN1CCCCC1 | 8.46
COc1cc2c(N3CCN(C(=S)NCc4cnc(C)cn4)CC3)ncnc2cc1OCCN1CCCCC1 | 20.9

---

List of IC50 values.
- TARGET OR SYSTEM: Platelet-derived growth factor receptor beta (Homo sapiens, UniProt P09619)
- Sequence (P09619 whole entry): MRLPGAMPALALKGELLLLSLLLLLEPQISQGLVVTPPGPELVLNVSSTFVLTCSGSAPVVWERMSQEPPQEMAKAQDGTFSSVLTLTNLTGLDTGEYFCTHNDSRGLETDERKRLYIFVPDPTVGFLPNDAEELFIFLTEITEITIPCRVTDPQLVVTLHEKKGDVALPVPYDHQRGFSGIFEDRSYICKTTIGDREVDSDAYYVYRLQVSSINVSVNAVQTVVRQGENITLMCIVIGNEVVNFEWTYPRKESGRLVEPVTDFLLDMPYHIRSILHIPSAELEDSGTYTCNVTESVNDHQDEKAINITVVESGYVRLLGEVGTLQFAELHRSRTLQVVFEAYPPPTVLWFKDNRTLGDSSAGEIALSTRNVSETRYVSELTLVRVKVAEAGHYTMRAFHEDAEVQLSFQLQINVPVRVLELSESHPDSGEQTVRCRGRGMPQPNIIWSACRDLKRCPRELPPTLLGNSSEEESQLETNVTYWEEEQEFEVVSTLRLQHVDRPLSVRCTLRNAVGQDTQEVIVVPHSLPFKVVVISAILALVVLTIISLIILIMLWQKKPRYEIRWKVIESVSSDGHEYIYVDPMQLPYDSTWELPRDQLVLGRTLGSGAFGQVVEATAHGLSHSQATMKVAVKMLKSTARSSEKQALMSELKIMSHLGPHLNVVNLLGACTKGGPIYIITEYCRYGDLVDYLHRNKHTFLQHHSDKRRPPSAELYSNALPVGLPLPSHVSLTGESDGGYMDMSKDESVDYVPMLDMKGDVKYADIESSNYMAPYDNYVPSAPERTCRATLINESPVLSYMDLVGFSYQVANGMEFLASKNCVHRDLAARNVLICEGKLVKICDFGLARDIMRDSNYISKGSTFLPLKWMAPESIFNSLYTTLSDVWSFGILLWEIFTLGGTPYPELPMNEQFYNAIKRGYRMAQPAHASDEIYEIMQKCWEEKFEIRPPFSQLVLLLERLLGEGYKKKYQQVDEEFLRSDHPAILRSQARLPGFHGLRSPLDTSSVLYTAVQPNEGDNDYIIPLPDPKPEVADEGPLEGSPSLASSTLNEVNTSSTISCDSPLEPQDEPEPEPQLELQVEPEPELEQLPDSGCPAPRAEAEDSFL
- ASSAY: Inhibition of Platelet derived growth factor receptor beta autophosphorylation in CHO cells
- Assay type: cell-based

ITEM SMILES | IC50 [µM]
COc1cc2c(N3CCN(C(=S)Nc4ccc(-c5ccccc5)nc4)CC3)ncnc2cc1OCCCN1CCCCC1 | 0.1
COc1cc2c(N3CCN(C(=S)NCc4cnc(C)cn4)CC3)ncnc2cc1OCCCN1CCCCC1 | 1.35
COc1cc2c(N3CCN(C(=S)NCc4ccc5c(c4)OCO5)CC3)ncnc2cc1OCCN1CCCCC1 | 0.04
COc1cc2c(N3CCN(C(=S)Nc4ccncc4)CC3)ncnc2cc1OCCCN1CCCCC1 | 0.58
COc1cc2c(N3CCN(C(=S)Nc4ccc(Cl)nc4)CC3)ncnc2cc1OCCN1CCCCC1 | 0.36
COc1cc2c(N3CCN(/C(S)=N\Cc4ccc(C(F)(F)F)nc4Cl)CC3)ncnc2cc1OCCN1CCCCC1 | 0.1
COc1cc2c(N3CCN(/C(S)=N\c4ccncc4)CC3)ncnc2cc1OCCN1CCCCC1 | 0.98

---

- TARGET OR SYSTEM: Platelet-derived growth factor receptor beta (Homo sapiens, UniProt P09619)
- ASSAY: In vitro inhibition of Platelet derived growth factor receptor beta autophosphorylation in MG-63 cells with 45% human plasma
- Format: cell-based

ITEM SMILES | TARGET OR SYSTEM | READOUT UNIT | IC50
COc1cc2c(N3CCN(C(=S)NCc4cnc(C)cn4)CC3)ncnc2cc1OCCCN1CCCCC1 | Platelet-derived growth factor receptor beta (Homo sapiens, UniProt P09619) | nM | 50
COc1cc2c(N3CCN(/C(S)=N\c4ccc(Cl)nn4)CC3)ncnc2cc1OCCN1CCCCC1 | Platelet-derived growth factor receptor beta (Homo sapiens, UniProt P09619) | nM | 1330
COc1cc2c(N3CCN(/C(S)=N\c4ccc(C(F)(F)F)nc4)CC3)ncnc2cc1OCCN1CCCCC1 | Platelet-derived growth factor receptor beta (Homo sapiens, UniProt P09619) | nM | 1060
COc1cc2c(N3CCN(C(=S)Nc4ccc(Br)cc4)CC3)ncnc2cc1OCCN1CCCC1 | Platelet-derived growth factor receptor beta (Homo sapiens, UniProt P09619) | nM | 470
